Please go through the items and note down their inhibition.
# testedTarget: Tyrosine-protein kinase Lyn (Homo sapiens);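 also: mean inhibition of the LYN A splice variant of the kinase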
# conditionLabel: at 0.1 µM
# Description: GSK_PKIS: LYN A (splice variant) mean inhibition at 0.1 uM [Nanosyn]
Give bare numbers, in %.

Cc1ccc(C(=O)NC2CCCCC2)cc1-c1ccc(C(=O)NCC2CC2)cc1: 2.9
O=C1NC(=O)C(c2ccccc2Cl)=C1Nc1cccc(O)c1: 5.68
CS(=O)(=O)CCN(CC#N)Cc1ccc(-c2ccc3ncnc(Nc4ccc(OCc5cccc(F)c5)c(Cl)c4)c3c2)o1: 2.44
CCn1c(-c2nonc2N)nc2cncc(C(=O)N3CCNCC3)c21: 5.29

Shift focus to the following entry.
*Q* inhibition for CC(C)=Cc1cccc2c1/C(=N/Nc1ccc(S(N)(=O)=O)cc1)C(=O)N2 ?
*A* 6.78

* * *

# testedTarget: Ephrin type-A receptor 4 (Homo sapiens) (UniProt P54764);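 also: mean inhibition of EPHA4 from the GSK PKIS screening set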
# Sequence (P54764 whole entry): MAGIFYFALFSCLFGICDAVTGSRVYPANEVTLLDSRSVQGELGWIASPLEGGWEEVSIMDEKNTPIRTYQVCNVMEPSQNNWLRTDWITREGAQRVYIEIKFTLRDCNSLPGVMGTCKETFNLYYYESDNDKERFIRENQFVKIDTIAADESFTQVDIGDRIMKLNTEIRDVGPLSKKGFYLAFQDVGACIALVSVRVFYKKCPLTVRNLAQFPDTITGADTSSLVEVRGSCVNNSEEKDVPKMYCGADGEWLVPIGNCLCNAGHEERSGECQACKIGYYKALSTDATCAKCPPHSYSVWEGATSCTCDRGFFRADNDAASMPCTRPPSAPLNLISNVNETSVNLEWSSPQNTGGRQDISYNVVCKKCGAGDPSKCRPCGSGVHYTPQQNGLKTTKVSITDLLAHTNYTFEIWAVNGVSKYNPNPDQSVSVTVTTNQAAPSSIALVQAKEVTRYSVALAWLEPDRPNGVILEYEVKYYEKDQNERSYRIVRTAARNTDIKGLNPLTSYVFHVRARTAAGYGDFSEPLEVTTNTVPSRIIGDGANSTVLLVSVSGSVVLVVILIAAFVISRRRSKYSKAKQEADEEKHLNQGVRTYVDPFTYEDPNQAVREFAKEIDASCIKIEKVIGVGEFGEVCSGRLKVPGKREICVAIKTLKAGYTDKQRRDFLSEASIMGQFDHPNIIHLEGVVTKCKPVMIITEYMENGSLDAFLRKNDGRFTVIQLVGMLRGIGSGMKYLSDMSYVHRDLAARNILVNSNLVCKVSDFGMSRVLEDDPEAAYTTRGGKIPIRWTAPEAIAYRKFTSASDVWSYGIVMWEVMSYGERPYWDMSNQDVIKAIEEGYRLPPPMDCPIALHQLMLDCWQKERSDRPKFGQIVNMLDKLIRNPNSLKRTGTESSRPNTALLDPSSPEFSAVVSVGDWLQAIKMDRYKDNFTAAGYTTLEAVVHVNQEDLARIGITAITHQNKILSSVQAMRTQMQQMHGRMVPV
# conditionLabel: at 0.1 µM
For each entry below, report its inhibition value.
One number for each entry, in %.

O=C1NC(=O)C(c2ccc(Cl)cc2)=C1Nc1ccc(Cl)c(C(=O)O)c1: -6.1
COc1cc(C)c(NC(=O)CN(C)C)cc1Nc1nc(Nc2cccc(F)c2C(N)=O)c2cc[nH]c2n1: 6.35

Hi there! I need inhibition for each item below, if you can.
1. CC1=C(C(=O)Nc2ccc3[nH]ncc3c2)C(c2ccc(Cl)c(Cl)c2)CC(=O)N1 (stereo unspecified)
2. CC1=C(C(=O)Nc2ccc3[nH]ncc3c2)C(c2ccc(F)cc2)NC(=O)N1 (stereo unspecified)
3. CCn1c(-c2nonc2N)nc2c(C#CC(C)(C)O)nc(OC[C@@H](N)c3ccccc3)cc21
4. O=C1NC(=O)C(N2CCc3ccccc32)=C1c1ccc(Cl)cc1

*A*
1: 6.53; 2: 4.19; 3: -5.47; 4: 8.28

* * *

# testedTarget: Ribosomal protein S6 kinase alpha-6 (Homo sapiens) (UniProt Q9UK32);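 also: reported value is the mean inhibition of RSK4, from the GSK PKIS kinase inhibitor screen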
# Sequence (Q9UK32 whole entry): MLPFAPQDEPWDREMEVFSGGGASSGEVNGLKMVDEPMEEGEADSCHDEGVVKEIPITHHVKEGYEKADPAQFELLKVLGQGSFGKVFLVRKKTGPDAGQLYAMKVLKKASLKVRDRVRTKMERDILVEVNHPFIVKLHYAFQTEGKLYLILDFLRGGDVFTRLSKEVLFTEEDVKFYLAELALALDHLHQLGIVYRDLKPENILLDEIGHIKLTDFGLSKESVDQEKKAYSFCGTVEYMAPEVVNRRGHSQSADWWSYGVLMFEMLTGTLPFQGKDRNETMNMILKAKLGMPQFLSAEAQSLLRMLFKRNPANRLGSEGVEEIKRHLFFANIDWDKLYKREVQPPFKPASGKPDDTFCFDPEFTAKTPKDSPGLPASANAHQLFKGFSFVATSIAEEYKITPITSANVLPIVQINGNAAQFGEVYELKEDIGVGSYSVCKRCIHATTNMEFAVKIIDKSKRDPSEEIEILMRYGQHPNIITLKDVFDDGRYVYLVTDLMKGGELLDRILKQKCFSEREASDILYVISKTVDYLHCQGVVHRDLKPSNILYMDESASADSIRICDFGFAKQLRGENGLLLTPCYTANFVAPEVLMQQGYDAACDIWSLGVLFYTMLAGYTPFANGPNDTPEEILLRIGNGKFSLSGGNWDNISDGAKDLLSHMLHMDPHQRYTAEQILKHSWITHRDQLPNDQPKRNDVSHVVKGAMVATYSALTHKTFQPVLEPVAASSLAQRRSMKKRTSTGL
# conditionLabel: at 0.1 µM
Please note: Criterion met applies when inhibition is 1% or greater, and Criterion not met applies otherwise.

Example cases with answers are listed next.
COc1ccc(-c2nn3ncccc3c2-c2ccnc(Nc3ccc(Cl)c(C(F)(F)F)c3)n2)cc1: Criterion not met
NS(=O)(=O)c1ccc(N/N=C2\C(=O)Nc3ccc(C(=O)NCCc4c[nH]cn4)cc32)cc1: Criterion met
NC(=O)c1ccc(-c2nc(-c3ccccn3)c(-c3ccc4c(c3)OCO4)[nH]2)cc1: Criterion not met

*Q* Could you verify whether the entry NCc1ccc(-c2nc(-c3ccc(Cl)c(O)c3)c(-c3ccncc3)[nH]2)cc1 shows inhibition of no less than 1%?
*A* Criterion not met

*Q* Is inhibition for CCn1c(-c2nonc2N)nc2cncc(C(=O)N3CC[C@H](N)C3)c21 at or above 1%?
*A* Criterion met

*Q* # bool: inhibition of COc1ccc2cc(-c3c(-c4ccncc4)nc(-c4ccc([S+](C)[O-])cc4)n3C)ccc2c1 (centres undefined) >= 1%
*A* Criterion not met

*Q* Confirm if inhibition reported for the compound O=C1NC(=O)C(c2ccccc2Cl)=C1Nc1cccc(O)c1 is 1% or above.
*A* Criterion not met

*Q* Given CC1=C(C(=O)Nc2ccc3[nH]ncc3c2)C(c2ccc3ccccc3c2)CC(=O)N1 (centres undefined) , state whether its inhibition is at least 1%.
*A* Criterion met

*Q* Threshold query (inhibition >= 1%) on Cc1nn(C)c2cc(N(C)c3ccnc(Nc4cccc(S(N)(=O)=O)c4)n3)ccc12
*A* Criterion met
